Every entry's value here was drawn from ChEMBL document CHEMBL1135710.

Observed Ki for Inosine-5'-monophosphate dehydrogenase 1 (Homo sapiens, UniProt P20839), reported per entry below.
result_type: Ki (nM)

INSERT INTO assay_data (compound, result_type, experimental_result) VALUES
  ('NC(=O)c1cccc(C2OC(COP(=O)(O)CP(=O)(O)OC[C@@H]3OC(n4cnc5c(N)ncnc54)[C@@H](O)[C@H]3O)[C@@H](O)[C@H]2O)c1 (stereo partly drawn)', 'Ki', 660),
  ('COc1c(C)c2c(c(O)c1C/C=C(\C)CCC(=O)O)C(=O)OC2', 'Ki', 40),
  ('COc1c(C)c2c(c(O)c1C/C=C(\C)COP(=O)(O)CP(=O)(O)OC[C@@H]1O[C@H](n3cnc4c(N)ncnc43)[C@@H](O)[C@H]1O)C(=O)OC2', 'Ki', 520);

----------
System: K562
Assay: Compound effect on differentiation of K562 cells, % of benzidine positive cells at 1.0 uM
Format: functional, Homo sapiens
Field 'label' (enum: Satisfied / Not satisfied). Set to Satisfied when Effect is strictly under 3%; else Not satisfied.

INSERT INTO results (compound, assigned_class) VALUES
  ('COc1c(C)c2c(c(O)c1CCOP(=O)(O)CP(=O)(O)O)C(=O)OC2', 'Not satisfied'),
  ('NC(=O)c1csc([C@H]2O[C@@H](COP(=O)(O)OP(=O)(O)OC[C@H]3O[C@@H](n4cnc5c(N)ncnc54)[C@H](O)[C@@H]3O)[C@H](O)[C@@H]2O)n1', 'Satisfied'),
  ('NC(=O)c1cccc(C2OC(COP(=O)(O)CP(=O)(O)OC[C@@H]3OC(n4cnc5c(N)ncnc54)[C@@H](O)[C@H]3O)[C@@H](O)[C@H]2O)c1 (stereo not given in full)', 'Satisfied'),
  ('COc1c(C)c2c(c(O)c1C/C=C(\C)COP(=O)(O)CP(=O)(O)OC[C@@H]1O[C@H](n3cnc4c(N)ncnc43)[C@@H](O)[C@H]1O)C(=O)OC2', 'Not satisfied'),
  ('COc1c(C)c2c(c(O)c1C/C=C(/C)CCCOP(=O)(O)CP(=O)(O)OC[C@@H]1OC(n3cnc4c(N)ncnc43)[C@@H](O)[C@H]1O)C(=O)OC2 (stereo not given in full)', 'Not satisfied'),
  ('COc1c(C)c2c(c(O)c1CCOP(=O)(O)CP(=O)(O)OC[C@H]1O[C@@H](n3cnc4c(N)ncnc43)[C@H](O)[C@@H]1O)C(=O)OC2', 'Not satisfied'),
  ('NC(=O)c1csc([C@@H]2O[C@H](COP(=O)(O)C(F)(F)P(=O)(O)OC[C@@H]3O[C@H](n4cnc5c(N)ncnc54)[C@@H](O)[C@H]3O)[C@@H](O)[C@H]2O)n1', 'Not satisfied'),
  ('COc1c(C)c2c(c(O)c1CCOP(=O)(O)CP(=O)(O)OCCc1c(O)c3c(c(C)c1OC)COC3=O)C(=O)OC2', 'Satisfied'),
  ('NC(=O)c1csc([C@@H]2O[C@H](CO)[C@@H](O)[C@H]2O)n1', 'Not satisfied'),
  ('NC(=O)c1csc([C@@H]2O[C@H](COP(=O)(O)CP(=O)(O)OC[C@@H]3O[C@H](n4cnc5c(N)ncnc54)[C@@H](O)[C@H]3O)[C@@H](O)[C@H]2O)n1', 'Satisfied');
